Molecular target: Grp94 (Canis lupus familiaris)
Sequence (P41148 with tags, fused parts or gaps DELINS287-327GGGG): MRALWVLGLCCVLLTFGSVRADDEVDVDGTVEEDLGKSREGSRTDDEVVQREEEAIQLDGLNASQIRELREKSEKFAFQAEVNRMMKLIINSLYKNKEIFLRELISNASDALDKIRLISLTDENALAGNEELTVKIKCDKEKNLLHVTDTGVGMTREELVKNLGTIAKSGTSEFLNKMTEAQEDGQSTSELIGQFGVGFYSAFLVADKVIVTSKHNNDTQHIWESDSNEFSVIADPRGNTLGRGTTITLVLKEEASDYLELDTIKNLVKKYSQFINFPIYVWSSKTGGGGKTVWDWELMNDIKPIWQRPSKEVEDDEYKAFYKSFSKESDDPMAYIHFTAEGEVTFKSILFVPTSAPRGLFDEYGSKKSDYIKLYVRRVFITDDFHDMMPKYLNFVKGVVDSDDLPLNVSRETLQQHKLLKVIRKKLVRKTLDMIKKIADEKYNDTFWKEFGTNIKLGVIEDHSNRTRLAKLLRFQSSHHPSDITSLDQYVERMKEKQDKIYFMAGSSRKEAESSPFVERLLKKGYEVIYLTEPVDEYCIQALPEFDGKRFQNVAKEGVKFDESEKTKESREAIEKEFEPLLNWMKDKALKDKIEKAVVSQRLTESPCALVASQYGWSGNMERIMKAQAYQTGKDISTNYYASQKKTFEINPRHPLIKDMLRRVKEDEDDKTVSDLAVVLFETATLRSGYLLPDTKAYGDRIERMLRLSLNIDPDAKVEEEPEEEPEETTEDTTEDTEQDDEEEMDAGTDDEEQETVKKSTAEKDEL
Conditions: read-out: Grp94; FP competition, 6 nM Cy3B-GM, 10 nM protein, 4° C. for 24 h
pIC50: −log10 of the molar value.
# maps each entry to its pIC50
reported_metric: pIC50

compound="CC(O)CNCCn1c(Sc2ccc(Cl)cc2Cl)nc2c(N)ncnc21 (stereo not shown)" reported_metric=pIC50 limit_operator== meas_value=6.64
compound=C#CCCCn1c(Sc2cc(Cl)ccc2Cl)nc2c(N)ncnc21 reported_metric=pIC50 limit_operator== meas_value=6.28
compound=C#CCCCn1cnc(N)c2nc(Sc3ccccc3CO)nc1-2 reported_metric=pIC50 limit_operator=< meas_value=4.00
compound=C#CCCCn1c(Sc2ccc(-n3cccc3)cc2)nc2c(N)ncnc21 reported_metric=pIC50 limit_operator=< meas_value=5.00
compound="Nc1ncn(CCCCCC(F)(F)F)c2nc(Sc3cc(Cl)cc(Cl)c3)nc1-2 [PDP-101A]" reported_metric=pIC50 limit_operator=< meas_value=4.00
compound=C#CCCCn1c(Sc2ccc(C#N)c(Br)c2)nc2c(N)ncnc21 reported_metric=pIC50 limit_operator== meas_value=5.37
compound=CC(C)NCCCn1c(Sc2cc(Cl)cc(Cl)c2)nc2c(N)ncnc21 reported_metric=pIC50 limit_operator== meas_value=6.66
compound=Cc1ccc(Sc2nc3c(N)ncn(CCCNC(C)C)c-3n2)c(C)c1 reported_metric=pIC50 limit_operator== meas_value=4.60
compound=C#CCCCn1c(Sc2ccc(OC)cc2OC)nc2c(N)ncnc21 reported_metric=pIC50 limit_operator== meas_value=4.46
compound=C#CCCCn1cnc(N)c2nc(Sc3cc(Cl)ccc3C(F)(F)F)nc1-2 reported_metric=pIC50 limit_operator== meas_value=3.70

----------
Target: Hsp90α (Homo sapiens)
Experiment: biochemical
Details: FP competition, 6 nM Cy3B-GM, 10 nM protein, 4° C. for 24 h
pIC50: −log10 of the molar value.
reported_metric: pIC50

compound=C#CCCCn1cnc(N)c2nc(Sc3ccc(Cl)c(Cl)c3)nc1-2 meas_value="< 4.30"
compound=CC(C)NCCCn1c(Sc2ccc(Cl)cc2-c2ccn[nH]2)nc2c(N)ncnc21 meas_value=5.82
compound="C#CCCCn1c(C(=O)c2ccc(Cl)cc2Cl)nc2c(N)ncnc21 [HJP-V-37T]" meas_value="< 4.60"
compound="C#CCCCn1c(Sc2ccc(Cl)cc2C(F)(F)F)nc2c(N)ncnc21 [PDP-117A]" meas_value="< 4.00"
compound="N#CCCCn1cnc(N)c2nc(Sc3cc(Cl)cc(Cl)c3)nc1-2 [PDP-93B]" meas_value="< 4.00"
compound=C#CCCCn1cnc(N)c2nc(Sc3cc(Cl)cc4c(Cl)ccnc34)nc1-2 meas_value="< 4.30"
compound="C#CCCCCn1c(Sc2cc(Cl)cc(Cl)c2)nc2c(N)ncnc21 [PDP-112A]" meas_value="< 4.00"
compound=Nc1ncn(CCC(F)(F)F)c2nc(Sc3cc(Cl)cc(Cl)c3)nc1-2 meas_value="< 4.30"
compound="C#CCCCn1c(Sc2cccc(Cl)c2Cl)nc2c(N)ncnc21 [PDP-119A]" meas_value="< 4.00"
compound=CC(C)NCCCn1c(Sc2cc(Cl)c(Cl)cc2Cl)nc2c(N)ncnc21 meas_value=5.24
compound=CC(C)NCCCn1c(Sc2cc(Cl)cc(-c3ccco3)c2)nc2c(N)ncnc21 meas_value=4.78
compound=CC(C)NCCCn1c(Sc2cc(Cl)cc(-c3cccs3)c2)nc2c(N)ncnc21 meas_value=5.10

----------
Measured pIC50, listed per entry.
Molecular target: Hsp90α (Homo sapiens)
Assay: biochemical
Details: FP competition, 6 nM Cy3B-GM, 10 nM protein, 4° C. for 24 h
pIC50: −log10 of the molar value.
reported_metric: pIC50

compound=CC(C)NCCCn1c(Sc2ccc(Cl)cc2[N+](=O)[O-])nc2c(N)ncnc21 system="Hsp90α (Homo sapiens)" reported_metric=pIC50 limit_operator== meas_value=4.85
compound="Nc1ncnc2c1nc(Sc1cc(Cl)cc(Cl)c1)n2CCCCCC(F)(F)F [PDP-101B]" system="Hsp90α (Homo sapiens)" reported_metric=pIC50 limit_operator=< meas_value=4.00
compound="CCCC(C)n1c(Sc2ccc(Cl)cc2Cl)nc2c(N)ncnc21 (stereo not drawn)" system="Hsp90α (Homo sapiens)" reported_metric=pIC50 limit_operator=< meas_value=4.30
compound=C=Cc1cc(Cl)cc(Sc2nc3c(N)ncnc3n2CCCNC(C)C)c1 system="Hsp90α (Homo sapiens)" reported_metric=pIC50 limit_operator== meas_value=4.31
compound=C#CCCCn1c(Sc2cc(Cl)cc3c(Cl)ccnc23)nc2c(N)ncnc21 system="Hsp90α (Homo sapiens)" reported_metric=pIC50 limit_operator=< meas_value=4.00
compound=Nc1ncnc2c1nc(Sc1ccc(Cl)cc1Cl)n2CCc1ccccc1C(F)(F)F system="Hsp90α (Homo sapiens)" reported_metric=pIC50 limit_operator=< meas_value=4.30
compound=CC(C)NCCCn1c(Sc2cc(Cl)cc(-c3cccc(C(F)(F)F)c3)c2)nc2c(N)ncnc21 system="Hsp90α (Homo sapiens)" reported_metric=pIC50 limit_operator== meas_value=4.86
compound=COc1cccc(-c2cc(Cl)cc(Sc3nc4c(N)ncnc4n3CCCNC(C)C)c2)c1 system="Hsp90α (Homo sapiens)" reported_metric=pIC50 limit_operator== meas_value=4.32
compound=CC(C)NCCCn1c(Sc2cc(Cl)cc(C#CC3CC3)c2)nc2c(N)ncnc21 system="Hsp90α (Homo sapiens)" reported_metric=pIC50 limit_operator=< meas_value=4.30

----------
The reader will find pIC50 measurements below, all made with Hsp90β (Homo sapiens, UniProt P08238).
Sequence (P08238 whole entry): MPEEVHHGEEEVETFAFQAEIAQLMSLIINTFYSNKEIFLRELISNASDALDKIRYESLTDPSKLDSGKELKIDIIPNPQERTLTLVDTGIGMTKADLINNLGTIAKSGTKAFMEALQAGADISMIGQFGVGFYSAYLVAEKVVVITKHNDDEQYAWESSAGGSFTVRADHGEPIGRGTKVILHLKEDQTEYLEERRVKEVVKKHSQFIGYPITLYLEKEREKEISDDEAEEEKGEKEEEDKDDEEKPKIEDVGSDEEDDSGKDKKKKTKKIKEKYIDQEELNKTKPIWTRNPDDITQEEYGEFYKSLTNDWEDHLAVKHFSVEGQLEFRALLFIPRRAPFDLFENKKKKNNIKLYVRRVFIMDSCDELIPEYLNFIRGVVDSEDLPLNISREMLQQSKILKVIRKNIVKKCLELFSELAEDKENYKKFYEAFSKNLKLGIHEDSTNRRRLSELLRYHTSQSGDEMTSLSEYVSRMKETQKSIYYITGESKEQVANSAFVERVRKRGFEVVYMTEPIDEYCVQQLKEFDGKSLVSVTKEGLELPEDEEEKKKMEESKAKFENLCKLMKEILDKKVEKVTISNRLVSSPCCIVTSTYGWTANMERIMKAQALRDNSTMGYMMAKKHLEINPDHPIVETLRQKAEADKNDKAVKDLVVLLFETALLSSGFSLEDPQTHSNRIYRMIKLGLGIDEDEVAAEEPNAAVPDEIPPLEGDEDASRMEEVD
pIC50: −log10 of the molar value.
reported_metric: pIC50

compound=C#CCCCn1c(Sc2ccc(OC)cc2OC)nc2c(N)ncnc21 system="Hsp90β (Homo sapiens, UniProt P08238)" meas_value=4.65
compound=C#CCCCn1cnc(N)c2nc(Sc3ccccc3CO)nc1-2 system="Hsp90β (Homo sapiens, UniProt P08238)" meas_value="< 4.00"
compound=C#CCCCn1c(Sc2cc(Cl)c(Cl)cc2Cl)nc2c(N)ncnc21 system="Hsp90β (Homo sapiens, UniProt P08238)" meas_value="< 3.70"
compound=C#CCCCn1cnc(N)c2nc(Sc3cc(Br)ccc3OC)nc1-2 system="Hsp90β (Homo sapiens, UniProt P08238)" meas_value=5.60
compound=C#CCCCn1cnc(N)c2nc(Sc3cc(C)ccc3C)nc1-2 system="Hsp90β (Homo sapiens, UniProt P08238)" meas_value="< 4.00"
compound=C#CCCCn1cnc(N)c2nc(Sc3cc(Cl)c(Cl)cc3Cl)nc1-2 system="Hsp90β (Homo sapiens, UniProt P08238)" meas_value="< 4.00"
compound=C#CCCCn1cnc(N)c2nc(Sc3ccccc3OC(F)(F)F)nc1-2 system="Hsp90β (Homo sapiens, UniProt P08238)" meas_value="< 4.00"
compound=C#CCCCn1cnc(N)c2nc(Sc3c(C)cc(C)cc3C)nc1-2 system="Hsp90β (Homo sapiens, UniProt P08238)" meas_value="< 4.00"
compound=C#CCCCn1c(Sc2ccccc2OC)nc2c(N)ncnc21 system="Hsp90β (Homo sapiens, UniProt P08238)" meas_value=3.96
compound="Nc1ncnc2c1nc(Sc1cc(Cl)cc(Cl)c1)n2CCCCCC(F)(F)F [PDP-101B]" system="Hsp90β (Homo sapiens, UniProt P08238)" meas_value="< 4.00"
compound=C#CCCCn1cnc(N)c2nc(Sc3cc(Cl)ccc3C(F)(F)F)nc1-2 system="Hsp90β (Homo sapiens, UniProt P08238)" meas_value="< 4.00"
compound=C#CCCCn1c(Sc2ccc(OC)cc2)nc2c(N)ncnc21 system="Hsp90β (Homo sapiens, UniProt P08238)" meas_value="< 4.00"
compound=C#CCCCn1cnc(N)c2nc(Sc3ccccc3Cl)nc1-2 system="Hsp90β (Homo sapiens, UniProt P08238)" meas_value="< 4.00"
compound="N#CCCCn1cnc(N)c2nc(Sc3cc(Cl)cc(Cl)c3)nc1-2 [PDP-93B]" system="Hsp90β (Homo sapiens, UniProt P08238)" meas_value="< 4.00"
compound="C#CCCCn1cnc(N)c2nc(Sc3ccc(Cl)c(Cl)c3Cl)nc1-2 [PDP-126B]" system="Hsp90β (Homo sapiens, UniProt P08238)" meas_value="< 4.00"
compound=C#CCCCn1c(Sc2c(C)cc(C)cc2C)nc2c(N)ncnc21 system="Hsp90β (Homo sapiens, UniProt P08238)" meas_value="< 3.60"
compound="C#CCCCCn1c(Sc2cc(Cl)cc(Cl)c2)nc2c(N)ncnc21 [PDP-112A]" system="Hsp90β (Homo sapiens, UniProt P08238)" meas_value="< 4.00"
compound=C#CCCCn1c(Sc2ccc(C(F)(F)F)cc2C(F)(F)F)nc2c(N)ncnc21 system="Hsp90β (Homo sapiens, UniProt P08238)" meas_value="< 4.00"
compound="C#CCCCn1c(Sc2cc(Br)cc(OC(F)(F)F)c2)nc2c(N)ncnc21 [PDP-120A]" system="Hsp90β (Homo sapiens, UniProt P08238)" meas_value="< 4.00"
compound=C#CCCCn1c(Sc2cc(Cl)cc3c(Cl)ccnc23)nc2c(N)ncnc21 system="Hsp90β (Homo sapiens, UniProt P08238)" meas_value="< 4.00"
